tested on: Mus musculus; experiment: In vivo potency against acute systemic infection in mouse caused by Streptococcus pyogenes C-203 on subcutaneous injection; format: functional; conditions: sc, read-out: PD50
Property Name: ED50 (mg/kg)
Your answer should be a plain number; it is taken to be in mg/kg.

For the compound shown here, C[C@H](N)C(=O)NC1CCN(c2cc3c(cc2F)c(=O)c(C(=O)O)cn3C2CC2)C1.Cl.O (some centres undefined) , give the reported ED50.
5

# input compound: C[C@H](N)C(=O)NC1CCN(c2nc3c(cc2F)c(=O)c(C(=O)O)cn3C2CC2)C1.Cl.O (some centres undefined) ; wanted: its ED50
7

// returns reported ED50 for input C[C@H](N)C(=O)N[C@H]1CCN(c2c(F)c(N)c3c(=O)c(C(=O)O)cn(C4CC4)c3c2F)C1.Cl.O
23

Now look at this one.
Param item = C[C@@H]1CN(c2c(F)c(N)c3c(=O)c(C(=O)O)cn(C4CC4)c3c2F)C[C@H](C)N1 ; retrieve measured ED50.
17

---

target: DNA gyrase (Escherichia coli) (UniProt P0AES6+P0AES4); assay: In vitro concentration inhibiting DNA gyrase induced cleavage in Escherichia coli H560.; format: functional
Property Name: Cleavage

Example entries begin here.
I am curious: what Cleavage value has been reported for C[C@H](N)C(=O)NC1CCN(c2c(F)cc3c(=O)c(C(=O)O)cn(C4CC4)c3c2F)C1.Cl.O (stereo not given in full) ?
1 µg/mL

# lookup: Cleavage of C[C@H](N)C(=O)NC1CCN(c2cc3c(cc2F)c(=O)c(C(=O)O)cn3C2CC2)C1.Cl.O (stereo not given in full)
1 µg/mL

Requested field: Cleavage. Item: C[C@@H](N)C(=O)NC1CCN(c2cc3c(cc2F)c(=O)c(C(=O)O)cn3C2CC2)C1.Cl.O (stereo not given in full)
1 µg/mL

Consider the compound NC(=O)CC[C@H](N)C(=O)NC1CCN(c2nc3c(cc2F)c(=O)c(C(=O)O)cn3C2CC2)C1 (stereo not given in full) and give its measured Cleavage.
5 µg/mL

Query compound follows.
I would be grateful if you could share the reported Cleavage for N[C@H]1CCN(c2nc3c(cc2F)c(=O)c(C(=O)O)cn3C2CC2)C1 .
0.25 µg/mL

---

assay: Solubility (at pH 4); type: physicochemical; conditions: buffer, read-out: S
Property Name: solubility (mg/mL)
Please respond with the number in mg/mL and leave the unit unwritten.

Look over these answered cases.
Look up solubility for this compound: Cl.N[C@@H](Cc1ccccc1)C(=O)NC1CCN(c2c(F)cc3c(=O)c(C(=O)O)cn(C4CC4)c3c2F)C1.O (some centres not stated)
21

For the compound Cl.NCC(=O)NC1CCN(c2c(F)cc3c(=O)c(C(=O)O)cn(C4CC4)c3c2F)C1.O (configuration not stated) , what solubility is on record?
20

Next:
Which solubility value is on record for C[C@H](N)C(=O)NC1CCN(c2c(F)cc3c(=O)c(C(=O)O)cn(C4CC4)c3c2F)C1.Cl.O (some centres not stated) ?
25

Requested field: solubility. Item: Cl.NC1CCN(c2c(F)cc3c(=O)c(C(=O)O)cn(C4CC4)c3c2F)C1 (configuration not stated)
2.4

# query: solubility of entry Cl.Nc1c(F)c(N2CC[C@@H](N)C2)c(F)c2c1c(=O)c(C(=O)O)cn2C1CC1.O
2.6
